- ASSAY COMMENT: Compound was tested in vitro for lumenal concentration in the rat jejunal sac to decrease by 50%.
- Format: ADME
Square brackets hold non-standard residues; d marks the D form. Peptide text beside a SMILES is read from it. pGlu = O=C1CC[C@@H](C(=O)O)N1
OBSERVABLE: half-life (min)

>>> obs_value("CCNC(=O)[C@@H]1CCCN1C(=O)[C@H](CCCN=C(N)N)NC(=O)[C@H](CC(C)C)NC(=O)[C@@H](Cc1c[nH]c2ccccc12)NC(=O)[C@H](Cc1ccc(O)cc1)NC(=O)[C@H](CO)N(C)C(=O)[C@H](Cc1c[nH]c2ccccc12)NC(=O)[C@H](Cc1c[nH]cn1)NC(=O)CN(C)C(C)=O")
55
>>> obs_value("CCNC(=O)[C@@H]1CCCN1C(=O)[C@H](CCCN=C(N)N)NC(=O)[C@H](CC(C)C)NC(=O)[C@@H](Cc1c[nH]c2ccccc12)NC(=O)[C@H](Cc1ccc(O)cc1)NC(=O)[C@H](CO)NC(=O)[C@H](Cc1c[nH]c2ccccc12)NC(=O)[C@H](Cc1ccccc1)NC(=O)[C@@H]1CCC(=O)N1 ([pGlu]FWSY[dW]LRP-NHEt)")
10.8
